# tested target: GRP94 (Sus scrofa)
# Sequence (Q29092 22-804): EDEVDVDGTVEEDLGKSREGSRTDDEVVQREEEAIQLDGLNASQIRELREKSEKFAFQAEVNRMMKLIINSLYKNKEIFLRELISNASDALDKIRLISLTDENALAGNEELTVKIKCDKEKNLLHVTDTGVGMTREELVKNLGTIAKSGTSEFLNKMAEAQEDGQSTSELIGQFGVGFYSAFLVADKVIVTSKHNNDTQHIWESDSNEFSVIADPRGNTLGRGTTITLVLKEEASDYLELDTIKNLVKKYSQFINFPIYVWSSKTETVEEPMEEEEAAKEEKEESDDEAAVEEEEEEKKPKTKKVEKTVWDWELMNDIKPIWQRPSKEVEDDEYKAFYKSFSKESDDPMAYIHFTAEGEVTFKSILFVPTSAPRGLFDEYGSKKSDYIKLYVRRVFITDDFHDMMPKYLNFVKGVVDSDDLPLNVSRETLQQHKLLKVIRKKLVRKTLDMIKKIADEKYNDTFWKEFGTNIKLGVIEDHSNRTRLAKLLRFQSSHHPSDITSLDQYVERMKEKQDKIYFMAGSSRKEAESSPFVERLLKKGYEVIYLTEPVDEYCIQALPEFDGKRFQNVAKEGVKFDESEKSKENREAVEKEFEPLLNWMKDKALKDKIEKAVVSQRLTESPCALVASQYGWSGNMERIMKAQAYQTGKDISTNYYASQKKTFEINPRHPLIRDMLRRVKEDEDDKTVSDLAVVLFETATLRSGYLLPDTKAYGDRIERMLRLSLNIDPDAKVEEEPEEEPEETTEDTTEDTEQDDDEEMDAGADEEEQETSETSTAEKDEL
# protocol notes: [3H]-NECA competitive displacement assay
# experimental context: competitors at 50 μM, 20 nM [3H]-NECA
readout name: binding to GRP94, nucleoside base specificity by [3H]-NECA displacement

Solved entries (count: 4):
1) O=c1ccn([C@@H]2O[C@H](COP(=O)(O)OP(=O)(O)OP(=O)(O)O)[C@@H](O)[C@H]2O)c(=O)[nH]1 ... little to no binding
2) Nc1ncnc2c1ncn2[C@@H]1O[C@H](COP(=O)(O)OP(=O)(O)OP(=O)(O)O)[C@@H](O)[C@H]1O ... could bind
3) Nc1nc2c(ncn2[C@@H]2O[C@H](COP(=O)(O)OP(=O)(O)OP(=O)(O)O)[C@@H](O)[C@H]2O)c(=O)[nH]1 ... little to no binding
4) Nc1ccn([C@@H]2O[C@H](COP(=O)(O)OP(=O)(O)OP(=O)(O)O)[C@@H](O)[C@H]2O)c(=O)n1 ... little to no binding

// next entry
Query string: Give its binding to GRP94, nucleoside base specificity by [3H]-NECA displacement value. Item: Nc1ncnc2c1ncn2[C@H]1C[C@H](O)[C@@H](COP(=O)(O)OP(=O)(O)OP(=O)(O)O)O1
Result string: could bind

###

# tested target: GRP94 (Sus scrofa)
# protocol notes: [3H]-NECA competitive displacement assay
# experimental context: 10 mM Mg(OAc)2 versus nominal magnesium
readout name: effect of excess Mg2+ on binding to GRP94

Solved entries (count: 4):
1) Nc1ncnc2c1ncn2[C@@H]1O[C@H](CO)[C@@H](O)[C@H]1O [adenosine] ... without effect
2) CCNC(=O)[C@H]1O[C@@H](n2cnc3c(N)ncnc32)[C@H](O)[C@@H]1O [NECA, N-ethylcarboxamidoadenosine] ... without effect
3) Nc1ncnc2c1ncn2[C@@H]1O[C@H](COP(=O)(O)O)[C@@H](O)[C@H]1O [AMP] ... markedly stimulated
4) Nc1ncnc2c1ncn2[C@@H]1O[C@H](COP(=O)(O)OP(=O)(O)OP(=O)(O)O)[C@@H](O)[C@H]1O [ATP] ... markedly stimulated

Query string: Give its effect of excess Mg2+ on binding to GRP94 value. Item: Nc1ncnc2c1ncn2[C@@H]1O[C@H](COP(=O)(O)OP(=O)(O)O)[C@@H](O)[C@H]1O [ADP]
Result string: markedly stimulated
